Measured on: Heat shock protein HSP90 (Homo sapiens, UniProt P07900+P08238)
Test: Inhibition of Hsp90 protein as degradation of HER2 kinase in SKBr3 cells
Assay type: functional, cell-based
Readout type: IC50 (µM)
Numeric answer only, unit µM assumed.

Give IC50 for the following compound: `C#CCCCn1c(Cc2cc(OC)c(OC)c(OC)c2)nc2c(N)nc(F)nc21`
10.5

Return the recorded IC50 value; entry: `COc1cccc(S(=O)(=O)c2nc3c(N)ncnc3n2CCOC(C)C)c1`
170

State, in one line, measured IC50 of `C#CCCCn1c(Sc2cc(C)ccc2C)nc2c(N)ncnc21`
147

Specify IC50 for `C#CCCCn1c(Sc2ccc(OC)cc2)nc2c(N)ncnc21` and stop.
75

Answer with reported IC50 of `C#CCCCn1c(Sc2ccc(-n3cccc3)cc2)nc2c(N)ncnc21`
311

Please give the documented IC50 of `CCCCn1c(Sc2cc(OC)c(OC)c(OC)c2Cl)nc2c(N)ncnc21`
22.8

Return reported IC50. Input compound: `C#CCCCn1c(S(=O)(=O)c2cccc(OC)c2)nc2c(N)ncnc21`
157

Fill in IC50 for record `Nc1[nH]cnc2nc(Sc3cc(Cl)c(Cl)cc3Cl)nc1-2`
47.8

Respond only with IC50 recorded for `C#CCCCn1c(Sc2cc(OC)ccc2OC)nc2c(N)ncnc21`
3.2

Return IC50 (reported value) for this compound: C#CCCCn1c([S+]([O-])c2cccc(OC)c2)nc2c(N)ncnc21 (stereo not drawn)
31.8

Tell me IC50 reported for `C#CCCCn1c(Sc2ccccc2Cl)nc2c(N)ncnc21`
195

Please give measured IC50 of the following entry: `C#CCCCn1c(Sc2ccccc2OC(F)(F)F)nc2c(N)ncnc21`
97

For the compound `C#CCCCn1c(S(=O)(=O)c2cc(OC)c(OC)c(OC)c2)nc2c(N)ncnc21` , give its reported IC50.
105

Give reported IC50 value for `C#CCCCn1c(Sc2cc(C(F)(F)F)ccc2Cl)nc2c(N)ncnc21`
35.9

Entry `Nc1[nH]cnc2nc(Sc3cc(C(F)(F)F)ccc3Cl)nc1-2` needs its IC50 filled in; supply it.
314

Item `C#CCCCn1c(Sc2cc(OC)c(OC)c(OC)c2)nc2c(N)nc(F)nc21` : provide IC50
20.9

For the compound `C#CCCCn1c(Sc2cccc(OC)c2)nc2c(N)ncnc21` , report IC50.
28.3

###

Measured on: Heat shock protein HSP 90-alpha (Homo sapiens)
Test: Effective concentration of compound against heat shock protein HSP90 determined in normal lung cells
Readout type: EC50

Determine reported EC50 for `C#CCCCn1c(Sc2cc(OC)ccc2I)nc2c(N)ncnc21` ; test system: Heat shock protein HSP 90-alpha (Homo sapiens).
29.7 µM

Return reported EC50 for target or system Heat shock protein HSP 90-alpha (Homo sapiens), item `C#CCCCn1c(Sc2cc3c(cc2Br)OCO3)nc2c(N)ncnc21` .
14.7 µM

Check Heat shock protein HSP 90-alpha (Homo sapiens) data and give EC50 for `C#CCCCn1c(Sc2cc(OC)ccc2Br)nc2c(N)ncnc21` .
27.6 µM

Look up Heat shock protein HSP 90-alpha (Homo sapiens) data: EC50 of `C#CCCCn1c(Sc2cc(OC)ccc2OC)nc2c(N)ncnc21` , then report it.
> 75 µM
